All values here come from paper PMC9420858.

# Test system: PC-3 cells
# test_name: Antiproliferative activity, CCK-8 assay, PC-3 cells
# Format: cell-based
# experimental_conditions: PC-3 human prostate cancer cell line, 24 h, mean ± SD of three experiments
measured_attribute: IC50

Previously resolved entries follow.
[[record]]
compound = "CCOc1ccccc1N1CCN(CCc2ccc(COc3ccc4c(c3)CCC4)cc2)CC1 [Compound 13]"
result = "> 50 µM"

[[record]]
compound = "FC(F)(F)c1ccc(N2CCN(CCc3ccc(COc4ccc5c(c4)CCC5)cc3)CC2)cc1 [Compound 26]"
result = "> 50 µM"

[[record]]
compound = "FC(F)(F)c1ccccc1N1CCN(CCc2ccc(COc3ccc4c(c3)CCC4)cc2)CC1 [Compound 25]"
result = "> 50 µM"


Input line: Data request, read-out IC50, for c1ccc(N2CCN(CCc3ccc(COc4ccc5c(c4)CCC5)cc3)CC2)nc1 [Compound 7]
Output line: > 50 µM

Input line: Data request, read-out IC50, for Clc1ccccc1N1CCN(CCc2ccc(COc3ccc4c(c3)CCC4)cc2)CC1 [Compound 19]
Output line: > 50 µM

Input line: Data request, read-out IC50, for c1ccc(N2CCN(CCc3ccc(COc4ccc5c(c4)CCC5)cc3)CC2)cc1 [Compound 5]
Output line: > 50 µM

Input line: Data request, read-out IC50, for Cc1cccc(N2CCN(CCc3ccc(COc4ccc5c(c4)CCC5)cc3)CC2)c1 [Compound 9]
Output line: > 50 µM

Input line: Data request, read-out IC50, for Fc1ccccc1N1CCN(CCc2ccc(COc3ccc4c(c3)CCC4)cc2)CC1 [Compound 16]
Output line: > 50 µM

Input line: Data request, read-out IC50, for Cc1ccc(N2CCN(CCc3ccc(COc4ccc5c(c4)CCC5)cc3)CC2)cc1 [Compound 10]
Output line: 17.2 µM

Input line: Data request, read-out IC50, for Clc1ccc(N2CCN(CCc3ccc(COc4ccc5c(c4)CCC5)cc3)CC2)cc1 [Compound 21]
Output line: > 50 µM

Input line: Data request, read-out IC50, for Cc1ccccc1N1CCN(CCc2ccc(COc3ccc4c(c3)CCC4)cc2)CC1 [Compound 8]
Output line: > 50 µM

Input line: Data request, read-out IC50, for Brc1ccc(N2CCN(CCc3ccc(COc4ccc5c(c4)CCC5)cc3)CC2)cc1 [Compound 24]
Output line: 2.31 µM

Input line: Data request, read-out IC50, for Cc1ccc(Cl)cc1N1CCN(CCc2ccc(COc3ccc4c(c3)CCC4)cc2)CC1 [Compound 23]
Output line: 0.95 µM
